Quick reference for Potency among some compounds
- Assay Explanation: Quantitative High-Throughput drug screen in 47 multiple myeloma cell lines against the NCATS MIPE library collection: L363_DSMZ cell viability assay (AID 1918984); further: potency means the concentration at half of the fitted maximal effect; nearly all actives have a fitted effect of over 40% in size
- Assay Conditions: L363 myeloma viability, CellTiter-Glo ATP luminescence, 48 h; series mostly up to 45.8 µM
Records with an inconclusive call do not appear. Calls of active or inactive are those of the source. The call rests on the fitted dose curve; in most records, active means well fitted cell-killing curve with a large enough effect; inconclusive means small, poorly fitted or top-dose-only effect, or effect the other way; inactive means no such curve, though single readings can be large or run the other way.
Measured Quantity: Potency

{"Smiles Entry": "CC(C)CC(=O)Nc1n[nH]c2c1CN(C(=O)C1CCN(C)CC1)C2(C)C", "Observed Value": "0.833 µM (active)"}
{"Smiles Entry": "Fc1cc(-c2cccc3ncc(-c4cnn(C5CCNCC5)c4)nc23)cc(F)c1CN1CCOCC1", "Observed Value": "6.62 µM (active)"}
{"Smiles Entry": "CCN(CC)CCCCNc1ncc2cc(-c3cc(OC)cc(OC)c3)c(NC(=O)NC(C)(C)C)nc2n1", "Observed Value": "14.8 µM (active)"}
{"Smiles Entry": "CCn1cc(-c2ccnc3[nH]c(-c4cccc(CN(C)C)c4)cc23)c(-c2ccc(NC(=O)N(C)C)cc2)n1", "Observed Value": "2.09 µM (active)"}
{"Smiles Entry": "C[C@@H]1COC(Nc2ccc3ncnc(Nc4ccc(OCc5nccs5)c(Cl)c4)c3c2)=N1", "Observed Value": "9.35 µM (active)"}

----------
- Assay Explanation: NS1 protein of Zika virus - qHTS assay to identify small molecule inhibitors in human HEK 293 cells (AID 1347053); further: nearly all actives have a fitted effect of over 55% in size
- Assay Conditions: HEK293 ZIKV MR766 infection, NS1 TR-FRET, 24 h; series mostly up to 46.1 µM
Records with an inconclusive call do not appear. Active and inactive are the calls of the source. Calls come from the whole dose curve; as a rule, active = well fitted inhibition curve with a large enough effect; inconclusive = small, poorly fitted or top-dose-only effect; inactive = no such curve, though single readings can be large or run the other way.
Outcomes: active, inactive

{"Compound": "CC(=O)OCCN1C(=O)c2c(C)nc3ccc(S(=O)(=O)N4CCOCC4)cc3c2C1=O", "Label Value": "inactive"}
{"Compound": "Cc1cccc(C=NNc2cc(N3CCOCC3)nc(OCCc3ccccn3)n2)c1", "Label Value": "active"}
{"Compound": "COc1cccc(-c2ccc(NC(=O)C3=C(C(=O)O)CCC3)c(F)c2)c1", "Label Value": "active"}
{"Compound": "CCCNC(=O)Nc1ccc(Oc2ncnc3cc(OC)c(OC)cc23)cc1Cl", "Label Value": "inactive"}
{"Compound": "C=C1C(=CC=C2CCCC3(C)[C@@H]([C@H](C)C=CC=CC(O)(CC)CC)CC[C@@H]23)C[C@@H](O)C[C@@H]1O (some centres undefined)", "Label Value": "inactive"}
{"Compound": "CCOC(=O)C1=C(C)NC2=C(C(=O)CC(C)(C)C2)C1c1ccc(-c2ccccc2)cc1 (centres undefined)", "Label Value": "active"}
{"Compound": "Clc1cccc(-n2nnnc2NCc2ccccc2Oc2ccccn2)c1Cl", "Label Value": "inactive"}
{"Compound": "C1=CCOCc2cc(ccc2OCCN2CCCC2)Nc2nccc(n2)-c2cccc(c2)OCC1", "Label Value": "active"}
{"Compound": "COC(=O)C[C@](O)(CCCC(C)(C)O)C(=O)O[C@@H]1C(OC)=C[C@]23CCCN2CCc2cc4c(cc2[C@H]13)OCO4", "Label Value": "inactive"}

----------
- Assay Explanation: qHTS of pediatric cancer cell lines to identify multiple opportunities for drug repurposing: Primary screen for SK-N-MC cells (AID 1347093); further: potency means the concentration at half of the fitted maximal effect
- Assay Conditions: SK-N-MC viability, CellTiter-Glo luminescence, 48 h; series mostly up to 46 µM
Inconclusive results are not listed. The source made the active and inactive calls. Calls come from the whole dose curve; as a rule, active = well fitted cell-killing curve with a large enough effect; inconclusive = small, poorly fitted or top-dose-only effect; inactive = no such curve, though single readings can be large or run the other way.

{"Molecule": "Cc1ccc(C(N)=O)cc1Nc1nccc(-c2cn(C(C)C)c3cnccc23)n1", "Potency": "5900 nM (active)"}
{"Molecule": "Cc1coc2c1C(=O)C(=O)c1c-2ccc2c1CCCC2(C)C", "Potency": "8330 nM (active)"}
{"Molecule": "CC[C@@H]1C(=O)N(C)c2cnc(Nc3ccc(C(=O)NC4CCC(N5CCN(CC6CC6)CC5)CC4)cc3OC)nc2N1C(C)C (some centres not stated)", "Potency": "148 nM (active)"}
{"Molecule": "O=c1[nH]c(=O)n(C2CCCO2)cc1F (configuration not stated)", "Potency": "inactive"}
{"Molecule": "CCn1cc(-c2ccnc3[nH]c(-c4cccc(CN(C)C)c4)cc23)c(-c2ccc(NC(=O)N(C)C)cc2)n1", "Potency": "46.9 nM (active)"}
{"Molecule": "CC(=O)SC[C@@H](C)C(=O)N1CCC[C@H]1C(=O)N[C@@H](Cc1ccccc1)C(=O)O", "Potency": "inactive"}
{"Molecule": "COC(=O)Nc1ccc(-c2nc(N3CCOCC3)c3cnn(C4CCN(Cc5cccnc5)CC4)c3n2)cc1", "Potency": "46.9 nM (active)"}
{"Molecule": "CC(C)=CCCC(C)=CCCC(C)=CCSc1ccccc1C(=O)O", "Potency": "743 nM (active)"}
{"Molecule": "CC(C)(O)c1cc2nc(-c3cnc(N)nc3)nc(N3CCOCC3)c2s1", "Potency": "11.8 nM (active)"}
{"Molecule": "CC(C)c1nn(-c2c(Cl)cccc2Cl)c2nc(Cc3ccc(OCCO)cc3)[nH]c(=O)c12", "Potency": "41.8 nM (active)"}
{"Molecule": "Nc1ncnc2c1c(-c1cccc(OCc3ccccc3)c1)cn2C1CC(CN2CCCC2)C1 (configuration not stated)", "Potency": "662 nM (active)"}
{"Molecule": "Cc1ccc(-c2ncn(-c3ccc(Nc4nccc(-c5cccc(N6CCOCC6)c5)n4)cc3)n2)cn1", "Potency": "66.2 nM (active)"}
{"Molecule": "O=C(O)[C@H](Cc1c[nH]c2ccccc12)N1C(=O)c2ccccc2C1=O", "Potency": "48100 nM (active)"}
{"Molecule": "COc1c(N2C[C@@H]3CCCN[C@H]3C2)c(F)cc2c(=O)c(C(=O)O)cn(C3CC3)c12", "Potency": "inactive"}
{"Molecule": "Cc1nc(N)ncc1-c1nc(N2CCOCC2)c2sc(C(C)(C)O)cc2n1", "Potency": "46.9 nM (active)"}
{"Molecule": "C[C@@H]1CN(CC(=O)Nc2ccc3c(c2)Cc2cccc(-c4cc(=O)cc(N5CCOCC5)o4)c2S3)C[C@H](C)O1", "Potency": "4180 nM (active)"}
{"Molecule": "Cc1ccc2nc(NC(=O)CSc3nc4c(c(=O)n3-c3ccccc3)SCC4)sc2c1", "Potency": "26400 nM (active)"}
{"Molecule": "CN(C)c1nc(Cc2ccc(NC(=O)c3ccc4ccccc4c3)cc2)nc(Cl)c1CC(=O)O", "Potency": "inactive"}
{"Molecule": "CN(C)CC=CC(=O)Nc1cc2c(Nc3ccc(F)c(Cl)c3)ncnc2cc1O[C@H]1CCOC1", "Potency": "1660 nM (active)"}
{"Molecule": "CC(C)c1cnn2c(NCc3ccccc3)cc(N[C@@H](CO)[C@H](O)CO)nc12", "Potency": "296 nM (active)"}
{"Molecule": "CC1=C(CO)C(=O)O[C@@H]([C@@H](C)[C@H]2CC[C@H]3[C@@H]4C[C@H]5O[C@]56[C@@H](O)C=CC(=O)[C@]6(C)[C@@H]4CC[C@]23C)C1", "Potency": "132 nM (active)"}
{"Molecule": "COc1ccc(C=Cc2cc(OC)c(OC)c(OC)c2)cc1O", "Potency": "1 nM (active)"}
{"Molecule": "COc1cccc(Nc2c(C(N)=O)cnc3c(C)cc(S(=O)(=O)c4cccc(C(=O)N(C)C)c4)cc23)c1", "Potency": "6450 nM (active)"}
{"Molecule": "CC(=O)OCC(=O)[C@@]1(O)[C@H](C)C[C@H]2[C@@H]3C=C(C)C4=Cc5c(cnn5-c5ccccc5)C[C@]4(C)[C@@H]3[C@@H](O)C[C@@]21C", "Potency": "1180 nM (active)"}
{"Molecule": "Cc1cn2c(-c3cn[nH]c3)cnc2c(Nc2ccc(C(=O)N3CCNCC3)cc2F)n1", "Potency": "1660 nM (active)"}
{"Molecule": "COC(=O)C1=C(C)NC(C)=C(C(=O)OCCN2CCN(C(c3ccccc3)c3ccccc3)CC2)C1c1cccc([N+](=O)[O-])c1 (configuration not stated)", "Potency": "6680 nM (active)"}
{"Molecule": "Nc1nccc(Oc2ccc(NC(=O)c3c[nH]cc(-c4ccc(F)cc4)c3=O)cc2F)c1Cl", "Potency": "2350 nM (active)"}
{"Molecule": "Cc1nc(Nc2n[nH]c3c2CN(C(=O)N[C@H](CN(C)C)c2ccccc2)C3(C)C)c2sccc2n1", "Potency": "33.2 nM (active)"}
{"Molecule": "CC(C)(C)OC(=O)Nc1ccc(-c2cc(C(=O)NCCCCCCC(=O)NO)no2)cc1", "Potency": "833 nM (active)"}
{"Molecule": "Nc1cccc(-c2cc3c(Oc4cccc(O)c4)ncnc3[nH]2)c1", "Potency": "1050 nM (active)"}
{"Molecule": "O=C(NCCCNc1nc(Nc2cccc(NC(=O)N3CCCC3)c2)ncc1I)c1cccs1", "Potency": "1320 nM (active)"}
{"Molecule": "c1cc(-c2cnn3cc(-c4ccc(OCCN5CCCCC5)cc4)cnc23)ccn1", "Potency": "9350 nM (active)"}
{"Molecule": "CCN(CC)CCCCNc1ncc2cc(-c3cc(OC)cc(OC)c3)c(NC(=O)NC(C)(C)C)nc2n1", "Potency": "23500 nM (active)"}
{"Molecule": "Cc1c(CN2CCN(S(C)(=O)=O)CC2)sc2c(N3CCOCC3)nc(-c3cnc(N)nc3)nc12", "Potency": "4.7 nM (active)"}
{"Molecule": "Nc1ccn([C@@H]2CS[C@H](CO)O2)c(=O)n1", "Potency": "inactive"}
{"Molecule": "CC(C)CC(=O)Nc1n[nH]c2c1CN(C(=O)C1CCN(C)CC1)C2(C)C", "Potency": "52.6 nM (active)"}
{"Molecule": "Cc1cc(Nc2cc(N3CCN(C)CC3)nc(C=Cc3ccccc3)n2)n[nH]1", "Potency": "1520 nM (active)"}
